Can you tell me inhibition at 1 µM for the items I'm about to list?
Biological target: human NOX4 (Homo sapiens, UniProt Q9NPH5)
Construct: expressed in transfected cells; membrane fraction used
Sequence (Q9NPH5 whole entry): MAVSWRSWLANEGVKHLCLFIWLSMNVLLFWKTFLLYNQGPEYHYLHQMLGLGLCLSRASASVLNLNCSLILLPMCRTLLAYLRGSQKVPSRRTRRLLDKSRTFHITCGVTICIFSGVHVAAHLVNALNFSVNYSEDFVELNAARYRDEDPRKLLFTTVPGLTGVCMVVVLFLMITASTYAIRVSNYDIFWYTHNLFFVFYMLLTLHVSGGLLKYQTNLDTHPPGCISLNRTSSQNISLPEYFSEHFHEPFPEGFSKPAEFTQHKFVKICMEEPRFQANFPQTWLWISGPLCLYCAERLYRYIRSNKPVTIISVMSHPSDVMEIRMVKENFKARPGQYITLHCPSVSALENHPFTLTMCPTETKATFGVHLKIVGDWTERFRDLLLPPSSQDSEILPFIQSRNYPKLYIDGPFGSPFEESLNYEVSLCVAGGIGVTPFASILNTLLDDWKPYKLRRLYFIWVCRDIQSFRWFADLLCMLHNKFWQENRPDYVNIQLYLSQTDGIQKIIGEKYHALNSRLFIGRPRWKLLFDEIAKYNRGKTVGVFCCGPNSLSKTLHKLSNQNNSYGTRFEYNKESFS
Sequence (P13498 whole entry partner): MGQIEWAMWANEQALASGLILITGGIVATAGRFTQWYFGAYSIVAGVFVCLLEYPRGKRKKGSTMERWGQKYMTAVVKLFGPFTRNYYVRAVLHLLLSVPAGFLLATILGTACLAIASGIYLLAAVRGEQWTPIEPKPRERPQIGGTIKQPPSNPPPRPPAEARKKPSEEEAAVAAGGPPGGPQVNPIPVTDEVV
Assay: Cell free membrane based in vitro NOX4 assay: H2O2 production by membranes expressing human NOX4, measured with Amplex Red
Type: biochemical
Conditions: 1.0 μM compound, read-out: Percentage inhibition at 1.0 μM
Answers are plain numbers, in %.

Structure: COc1ccc(Cl)c(-c2[nH]c3c(c(C(F)(F)F)nn3C)c(=O)c2O)c1
Assayed Target: human NOX4 (Homo sapiens, UniProt Q9NPH5)
Metric Name: inhibition at 1 µM
Quantitative Result: 100

Hi, could you look up inhibition at 1 µM for each item in my list?
1. Cc1cc(F)ccc1-n1nc(C)c2c(=O)c(O)c(-c3ccccc3Cl)[nH]c21
2. CCc1nn(CCC(C)C)c2[nH]c(-c3ccccc3Cl)c(O)c(=O)c12
3. CCn1nc(C)c2c(=O)c(O)c(-c3ccc(N)cc3F)[nH]c21
4. CCn1nc(C)c2c(=O)c(O)c(-c3c(F)cc(OC)cc3F)[nH]c21
5. Cc1nn(C2CCOCC2)c2[nH]c(-c3c(F)cccc3F)c(O)c(=O)c12
6. O=c1c(O)c(-c2ccccc2Cl)[nH]c2c1c(C(F)(F)F)nn2CCN1CCOCC1

63.4
100
66.9
78.8
88.1
67.1

Hi, could you look up inhibition at 1 µM for each item in my list?
1. CCn1nc(C)c2c(=O)c(O)c(-c3ccc(OCC4CC4)cc3F)[nH]c21
2. Cn1nc(CN2CCN(CCF)CC2)c2c(=O)c(O)c(-c3c(F)cccc3F)[nH]c21
3. CCc1nn(CCC2CCOCC2)c2[nH]c(-c3c(F)cccc3F)c(O)c(=O)c12
4. Cc1nn(-c2ccc(F)cc2)c2[nH]c(-c3c(F)cccc3F)c(O)c(=O)c12
5. Cc1nn(CCN2CCCCC2)c2[nH]c(-c3ccccc3Cl)c(O)c(=O)c12
6. CCc1nn(CCN2C[C@@H](C)O[C@@H](C)C2)c2[nH]c(-c3ccccc3Cl)c(O)c(=O)c12
7. CCn1nc(C(F)(F)F)c2c(=O)c(O)c(-c3ccccc3Cl)[nH]c21

1. 70.2
2. 84
3. 92.4
4. 100
5. 79.1
6. 82.8
7. 60.5

FYI, the data here is from patent US20200247800A1.
